src = ChEMBL document CHEMBL4229436

Test system: L02
experimentalProtocol: Cytotoxicity against human L02 cells after 72 hrs by MTT assay
Assay type: cell-based
conditions: L02, 72 h
valueType: pIC50
// pIC50: -log10(molar conc.)

Task: Record request: pIC50 value, item `COc1ccc(CN2CCC(NC(=O)C(C)(C)Oc3ccc(-c4cc(=O)c5ccccc5o4)cc3)CC2)cc1`
Result: 4.75

Task: Follow-up entry: `COc1ccc(C(=O)C2CCN(C(=O)c3ccc(C(=O)NC4CCN(Cc5ccc(C#N)cc5)CC4)cn3)CC2)cc1`
Result: 4.59

###

Test system: A549
experimentalProtocol: Cytotoxicity against human A549 cells after 72 hrs by MTT assay
Type: functional, cell-based
conditions: A549, 72 h
valueType: IC50 (µM)
Record the value in µM, omitting the unit from your answer.

Task: Record request: IC50 value, item `COc1ccc(CN2CCC(NC(=O)C(C)(C)Oc3ccc(-c4cc(=O)c5ccccc5o4)cc3)CC2)cc1`
Result: 40

Task: Follow-up entry: `COc1ccc(C(=O)C2CCN(C(=O)c3ccc(C(=O)NC4CCN(Cc5ccc(C#N)cc5)CC4)cn3)CC2)cc1`
Result: 19.5
